GI50 reference
Test system: 786-0
experiment summary: NCI tumour cell line growth inhibition, 48 h
Activity calls are given as the source filed them. Rule as the data show it: active = GI50 up to about 1.1 µM and inactive = higher.

Worked cases, GI50 given:
O=P(O)(NCCCl)NCCCl [PALIFOSFAMIDE] ... > 67.8 µM (inactive)
Cc1ccc(-c2cs/c(=N\c3ccccc3)n2NC(=O)c2ccncc2)cc1 ... 48 µM (inactive)
C[C@@H]1C2=CC[C@@]3(C)C(CCC3[C@H](C)[C@H]3C[C@@]4(C)O[C@@](c5cccnc5)(O3)OC4(C)C)[C@@H]2C2OC2[C@@]12CCC(=O)O2 (stereo partly specified) ... 38.2 µM (inactive)
O=C(O)c1ccc(Nc2nc3nn(Cc4ccccc4)cc3c(=O)s2)cc1 ... > 100 µM (inactive)
COc1cc2c(NCCCCCCO[N+](=O)[O-])ncnc2c(OC)c1OC ... 26 µM (inactive)
CCC1(O)C(=O)OCc2c1cc1n(c2=O)Cc2cc3ccc(CO)cc3nc2-1 (stereo unspecified) ... 1.99 µM (inactive)
OC1=CN=COc2ccccc21 ... > 100 µM (inactive)
O=c1c2ccccc2nc(-c2ccccc2Cl)n1NCC1(O)OCC(O)C(O)C1O (stereo unspecified) ... > 100 µM (inactive)
CCc1nc2cc3cccnc3c(Cl)c2[nH]c1=O ... 79.8 µM (inactive)
OCC(O)C(OC1OC(CO)C(O)C(O)C1O)c1nn(-c2ccc(Cl)cc2)c2nc3cc(Cl)ccc3nc12 (stereo unspecified) ... > 100 µM (inactive)

**Q:** // lookup GI50 for COc1cc2c(c(OC)c1)[C@H](C)N(Cc1ccccc1)C(C)C2 (stereo partly specified)
**A:** 36.1 µM (inactive)

**Q:** # repeat for CC(=O)NC(Cc1ccc(OP(=O)(OCc2ccc([N+](=O)[O-])o2)N(C)CCCCCl)cc1)C(=O)NC(C)c1ccc(OCC2CCCCC2)c(C(N)=O)c1 (stereo unspecified)
**A:** 3.37 µM (inactive)

**Q:** # repeat for NC12Oc3cc(O)cc(O)c3C1(c1ccc(Cl)cc1)c1c(O)cc(O)cc1O2 (stereo unspecified)
**A:** 61.8 µM (inactive)

**Q:** # repeat for CCOC(=O)C1=C(C)N(Cc2ccccc2)C(=O)C1CC#N (stereo unspecified)
**A:** > 100 µM (inactive)

**Q:** # repeat for "C/C(=C\c1ccccc1)C(=O)c1c(C)cc(C)cc1C"
**A:** > 100 µM (inactive)

**Q:** # repeat for "CC(=O)O[C@H]1CC[C@H]2[C@@H]3CCC4=C/C(=N/OCCN(C)C)CC[C@]4(C)[C@H]3CC[C@]12C"
**A:** 8.17 µM (inactive)

---

Tested on: Malme-3M
experiment summary: NCI tumour cell line growth inhibition, 48 h
Calls of active or inactive are those of the source. Cut-off read from the data, not from the text of the source: active = GI50 up to about 1.1 µM and inactive = higher.
value type: GI50

C/C(=C\c1ccccc1)C(=O)c1c(C)cc(C)cc1C ... > 100 µM (inactive)
CC(=O)OC1(C#N)CC2OC1C1C2N=NN1C(=O)OC(C)(C)C (stereo unspecified) ... 21.9 µM (inactive)
Cc1nc2cc(/N=N/c3c(O)ccc4ccccc34)ccc2[nH]1 ... > 51.2 µM (inactive)
Nc1ccc(Nc2nc(F)nc(-c3c4ccccc4c4n3CCS4)n2)cc1 ... 14.5 µM (inactive)
OC(c1ccccc1Br)(c1ccccc1Br)C(F)(F)F ... 24 µM (inactive)

**Q:** // lookup GI50 for "O=C(CC/C(CC(=O)c1ccc(Cl)cc1)=N\O)Nc1cccc(Cl)c1"
**A:** > 100 µM (inactive)

**Q:** # repeat for CCOC(C)OCC#CCCBr (stereo unspecified)
**A:** > 100 µM (inactive)
